- methodSummary: Tmax in CD-1 mouse at 30 mg/kg, po by LC-MS/MS analysis
- Type: ADME, organism-based
- conditionSummary: in vivo
metricName: Tmax (min)
Reply with just the number (in min).

Input: Report Tmax for CCCc1ccc(OCc2ccc(C(=O)O)o2)cc1OC please.
Output: 15

---

- methodSummary: Observed AUCinfinity in CD-1 mouse at 1 mg/kg, po by LC-MS/MS analysis
- Format: ADME, organism-based
- Parameters: dose 1 mg/kg, route po
- conditionSummary: in vivo
metricName: AUC(0-inf) (ng·h/mL)
Provide the reading as a plain figure in ng·h/mL.

Input: Given the molecule CCCc1ccc(OCc2ccc(C(=O)O)o2)cc1OC , what is its reported AUC(0-inf)?
Output: 709
